Record form. Attribute: MIC S. faecalis ATCC 7080. Fill in for each entry.
# System: S. faecalis ATCC 7080
# test.method.notes: In vitro antibacterial activity, standard agar-dilution test (MIC)
# Format: cell-based
# particulars: inoculum about 10^4 CFU/ml, 18-24 h at 37° C.
Answers are plain numbers, in µg/mL.

Observe how each entry below is paired with its result.
Cl.Cl.NC1C(=O)NC2Cc3ccc(c(Cl)c3)Oc3cc4cc(c3O)Oc3ccc(cc3Cl)C(O)C3NC(=O)C(NC(=O)C4NC(=O)C(NC2=O)c2cc(O)cc(c2)Oc2cc1ccc2O)c1ccc(O)c(c1)-c1c(O)cc(O)cc1C(C(=O)NCCCN1CCOCC1)NC3=O (stereo not shown) [Compound 78]	0.12
CC(=O)NC1C(OC2c3ccc(c(Cl)c3)Oc3cc4cc(c3O)Oc3ccc(cc3Cl)CC3NC(=O)C(N)c5ccc(O)c(c5)Oc5cc(O)cc(c5)C(NC3=O)C(=O)NC4C(=O)NC3C(=O)NC2C(=O)NC(C(=O)NCCCN(C)C)c2cc(O)cc(O)c2-c2cc3ccc2O)OC(CO)C(O)C1O (stereo not shown) [Compound 13]	0.25
CCN(CC)CCCNC(=O)C1NC(=O)C2NC(=O)C(NC(=O)C3NC(=O)C4NC(=O)C(Cc5ccc(c(Cl)c5)Oc5cc3cc(c5O)Oc3ccc(cc3Cl)C2O)NC(=O)C(N)c2ccc(O)c(c2)Oc2cc(O)cc4c2)c2ccc(O)c(c2)-c2c(O)cc(O)cc21 (stereo not shown) [Compound 19]	0.12

Query compound follows.
For the compound NCCCCNC(=O)C1NC(=O)C2NC(=O)C(NC(=O)C3NC(=O)C4NC(=O)C(Cc5ccc(c(Cl)c5)Oc5cc3cc(c5O)Oc3ccc(cc3Cl)C2O)NC(=O)C(N)c2ccc(O)c(c2)Oc2cc(O)cc4c2)c2ccc(O)c(c2)-c2c(O)cc(O)cc21 (stereo not shown) [Compound 99] , what MIC S. faecalis ATCC 7080 is on record?
0.12

====

# test.method.notes: Isoelectric point (pI) by isoelectrofocusing with bioautography detection
# Type: physicochemical
# particulars: IEF technique, polyacrylamide gel
Record form. Attribute: Isoelectric point (pI). Fill in for each entry.

Observe how each entry below is paired with its result.
NC1C(=O)NC2Cc3ccc(c(Cl)c3)Oc3cc4cc(c3O)Oc3ccc(cc3Cl)C(O)C3NC(=O)C(NC(=O)C4NC(=O)C(NC2=O)c2cc(O)cc(c2)Oc2cc1ccc2O)c1ccc(O)c(c1)-c1c(O)cc(O)cc1C(C(=O)NCCCCCC(=O)NC1C(O)OC(CO)C(O)C1O)NC3=O (centres unmarked)	7.9
NC1C(=O)NC2Cc3ccc(c(Cl)c3)Oc3cc4cc(c3O)Oc3ccc(cc3Cl)C(O)C3NC(=O)C(NC(=O)C4NC(=O)C(NC2=O)c2cc(O)cc(c2)Oc2cc1ccc2O)c1ccc(O)c(c1)-c1c(O)cc(O)cc1C(C(=O)N1CCOCC1)NC3=O (centres unmarked)	7.8
Cl.Cl.NC1C(=O)NC2Cc3ccc(c(Cl)c3)Oc3cc4cc(c3O)Oc3ccc(cc3Cl)C(O)C3NC(=O)C(NC(=O)C4NC(=O)C(NC2=O)c2cc(O)cc(c2)Oc2cc1ccc2O)c1ccc(O)c(c1)-c1c(O)cc(O)cc1C(C(=O)NCCCN1CCOCC1)NC3=O (centres unmarked)	8.1
NC1C(=O)NC2Cc3ccc(c(Cl)c3)Oc3cc4cc(c3O)Oc3ccc(cc3Cl)C(O)C3NC(=O)C(NC(=O)C4NC(=O)C(NC2=O)c2cc(O)cc(c2)Oc2cc1ccc2O)c1ccc(O)c(c1)-c1c(O)cc(O)cc1C(C(=O)NCCN1CCCC1)NC3=O (centres unmarked)	8.8
CCCCCCN(CCCCCC)CCCNC(=O)C1NC(=O)C2NC(=O)C(NC(=O)C3NC(=O)C4NC(=O)C(Cc5ccc(c(Cl)c5)Oc5cc3cc(c5O)Oc3ccc(cc3Cl)C2OC2OC(CO)C(O)C(O)C2NC(C)=O)NC(=O)C(N)c2ccc(O)c(c2)Oc2cc(O)cc4c2)c2ccc(O)c(c2)-c2c(OC3OC(CO)C(O)C(O)C3O)cc(O)cc21 (centres unmarked)	8.7

Provide the reported Isoelectric point (pI) of each entry below, same order.
1. CCOC(=O)CNC(=O)C1NC(=O)C2NC(=O)C(NC(=O)C3NC(=O)C4NC(=O)C(Cc5ccc(c(Cl)c5)Oc5cc3cc(c5O)Oc3ccc(cc3Cl)C2OC2OC(CO)C(O)C(O)C2NC(C)=O)NC(=O)C(N)c2ccc(O)c(c2)Oc2cc(O)cc4c2)c2ccc(O)c(c2)-c2c(O)cc(O)cc21 (centres unmarked)
2. CN(C)CCCCCNC(=O)C1NC(=O)C2NC(=O)C(NC(=O)C3NC(=O)C4NC(=O)C(Cc5ccc(c(Cl)c5)Oc5cc3cc(c5O)Oc3ccc(cc3Cl)C2O)NC(=O)C(N)c2ccc(O)c(c2)Oc2cc(O)cc4c2)c2ccc(O)c(c2)-c2c(O)cc(O)cc21 (centres unmarked)
3. NC1C(=O)NC2Cc3ccc(c(Cl)c3)Oc3cc4cc(c3O)Oc3ccc(cc3Cl)C(O)C3NC(=O)C(NC(=O)C4NC(=O)C(NC2=O)c2cc(O)cc(c2)Oc2cc1ccc2O)c1ccc(O)c(c1)-c1c(O)cc(O)cc1C(C(=O)NCC(=O)O)NC3=O (centres unmarked)

1: 7.8; 2: 9.0; 3: 5.8

Provide the reported Isoelectric point (pI) of each entry below, same order.
1. CC(=O)NC1C(OC2c3ccc(c(Cl)c3)Oc3cc4cc(c3O)Oc3ccc(cc3Cl)CC3NC(=O)C(N)c5ccc(O)c(c5)Oc5cc(O)cc(c5)C(NC3=O)C(=O)NC4C(=O)NC3C(=O)NC2C(=O)NC(C(=O)NCCCN(C)C)c2cc(O)cc(O)c2-c2cc3ccc2O)OC(CO)C(O)C1O (centres unmarked)
2. NC1C(=O)NC2Cc3ccc(c(Cl)c3)Oc3cc4cc(c3O)Oc3ccc(cc3Cl)C(O)C3NC(=O)C(NC(=O)C4NC(=O)C(NC2=O)c2cc(O)cc(c2)Oc2cc1ccc2O)c1ccc(O)c(c1)-c1c(O)cc(O)cc1C(C(=O)NCCN1CCOCC1)NC3=O (centres unmarked)
3. CN(C)CCCCCCCNC(=O)C1NC(=O)C2NC(=O)C(NC(=O)C3NC(=O)C4NC(=O)C(Cc5ccc(c(Cl)c5)Oc5cc3cc(c5O)Oc3ccc(cc3Cl)C2O)NC(=O)C(N)c2ccc(O)c(c2)Oc2cc(O)cc4c2)c2ccc(O)c(c2)-c2c(O)cc(O)cc21 (centres unmarked)
4. COC(=O)CNC(=O)C1NC(=O)C2NC(=O)C(NC(=O)C3NC(=O)C4NC(=O)C(Cc5ccc(c(Cl)c5)Oc5cc3cc(c5O)Oc3ccc(cc3Cl)C2OC2OC(CO)C(O)C(O)C2NC(C)=O)NC(=O)C(N)c2ccc(O)c(c2)Oc2cc(O)cc4c2)c2ccc(O)c(c2)-c2c(OC3OC(CO)C(O)C(O)C3O)cc(O)cc21 (centres unmarked)
5. CC(=O)NC1C(OC2c3ccc(c(Cl)c3)Oc3cc4cc(c3O)Oc3ccc(cc3Cl)CC3NC(=O)C(N)c5ccc(O)c(c5)Oc5cc(O)cc(c5)C(NC3=O)C(=O)NC4C(=O)NC3C(=O)NC2C(=O)NC(C(=O)NCC(=O)O)c2cc(O)cc(O)c2-c2cc3ccc2O)OC(CO)C(O)C1O (centres unmarked)
6. CCCCCCN(CCCCCC)CCCNC(=O)C1NC(=O)C2NC(=O)C(NC(=O)C3NC(=O)C4NC(=O)C(Cc5ccc(c(Cl)c5)Oc5cc3cc(c5O)Oc3ccc(cc3Cl)C2O)NC(=O)C(N)c2ccc(O)c(c2)Oc2cc(O)cc4c2)c2ccc(O)c(c2)-c2c(O)cc(O)cc21 (centres unmarked)

8.9
7.9
9.1
7.8
5.8
8.6
